Ref: patent US8624002B2

Experiment: Biotin-PGE2 ELISA (PGE2-biotinamide binding to captured IgG)
Settings: Biotin-PGE2 2 μM
Method: Enzyme linked immunosorbent assays to screen for antibodies that bind prostaglandin E2 were performed according to at least one of the two following methods. ELISA plates (Costar 3369, Corning, N.Y.) were coated with 50 μl of anti-host Fc IgG (Sigma, St. Louis, Mo.) at 2 μg/ml in PBS (Invitrogen Carlsbad, Calif.). […] Plates were read at 450 nm on a Molecular Devices Spectramax plate reader (Sunnyvale, Calif.). EC50 was determined using GraphPad Prism 5 (GraphPad Software, La Jolla, Calif.).
Answer class 0 if Binding to PGE2-Biotinamide (OD450) is under 0.3, and class 1 if it is 0.3 or more.

[
  {
    "molecule": "K3A: human anti-PGE2 antibody from PROfusion mRNA display; VH SEQ ID NO 13, VL SEQ ID NO 17 (antibody, V domains shown) VH: EVQLVQSGAETKKPGASVEVSCKASGYSFTEYGISWVRQAPGQGPEWMGCISPYNGKLHYAQEFQGRVTMTTGTSTNTAYMELGSLRSDDTAVYYCARGGFSFYDSSGYYYVTDHWGQGTLVTVSS VL: DIRLTQSPSSLSASVGDRVTITCRASQSIGSYLNWYQQKSGKAPKLLIYAASKLQSGVPSRFSGSGFGTDFTLTISSLQPEDSATYYCQQSDTTPFTFGQGTKLEIKR",
    "class name": "class 1"
  },
  {
    "molecule": "L11: human anti-PGE2 antibody from PROfusion mRNA display; VH SEQ ID NO 25, VL SEQ ID NO 29 (antibody, V domains shown) VH: EVQLVQSGPELKKPGTSVKVSCKASGYTLTTYAMNWVRQAPGQGLEWMGWIDTSTGNPTYAPGFLGRFVFSLDTSLSTTYLQISSLKPDDTAVYYCARSSHTRPGDFWGQGTLVTVSS VL: QSGLTQPPSVSGTPGQRVTISCSGSESNVGTNSVNWYQQLPGAAPRLLIRGNSDRPSGVPDRFSASKSGTSASLAISRLQSEDEADYFCGACDGRLSGLYVFGTGTKVTVL",
    "class name": "class 0"
  },
  {
    "molecule": "K7H: human anti-PGE2 antibody from PROfusion mRNA display; VH SEQ ID NO 21, VL SEQ ID NO 24 (antibody, V domains shown) VH: EVQLVQSGSELKKPGASVKVSCKASGYSFTEYGISWVRQAPGQGPEWMGCISPYNGKLHYAQKFLGRVTMTTDTSTNTAYMELRSLKSDDTAVYYCARGGFSSYDSSGYYYVTDHWGQGTLVTVSS VL: DIRLTQSPSSLPASVGDRVTITCRASQSISTYLNWYQQTPGKAPSLLIYAASSLQSGVPSRFSGSGSGTDFTLTISSLQPEDFATYYCQQSYSPPPTFGGGTKVEIKR",
    "class name": "class 0"
  },
  {
    "molecule": "K1B: human anti-PGE2 antibody from PROfusion mRNA display; VH SEQ ID NO 5, VL SEQ ID NO 9 (antibody, V domains shown) VH: EVQLVQSGAEVKRPGASVKVSCKTSGYTFTNYDINWVRLAPGQGLEWMGCMNPTTGKTGYAQKFQGRVTMTRDTTIATAYMELSRLTSEDTAVYYCARGRGYSPGYGVAYADYWGQGTLVTVSS VL: DIQLTQSPSSLPASVGDRVTITCRASQSISTYLNWYQQTPGKAPSLLIYAASSLQSGVPSRFSGSGSGTDFTLTISSLQPEDFATYYCQQSYSPPPTFGGGTKVEIKR",
    "class name": "class 0"
  },
  {
    "molecule": "L21: human anti-PGE2 antibody from PROfusion mRNA display; VH SEQ ID NO 33, VL SEQ ID NO 36 (antibody, V domains shown) VH: EVQLVQSGSELKKPGTSVKVSCKASGYTLTTYAMNWVRQAPGQGLEWMGWIGTSTGNPTYAQGFTGRFVFSLDTSVNTAHLQIYSLKAEDTALYYCARSSLTRPADYWGQGTLVTVSS VL: QSGLTQPPSVSGAPGQRVTISCFGSSSNIGAGYDVHWYQQLPGAAPKLLIFGNNNRPSGVPDRFSGSKSGTSASLAITGLQAEDEADYYCQSCDSSLSGAVFGTGTKVTVL",
    "class name": "class 1"
  }
]
